experimental system: PIK3R3-NC tandem SH2 domains (Homo sapiens, UniProt Q92569)
Construct: the tandem protein was included in our analysis with all internal amino acids linking the domains; 6X His; thioredoxin; made in house; host or cells: E. coli BL21(DE3)pLysS
experimental protocol: FP saturation binding assay
study conditions: protein PIK3R3-NC; FP, high-confidence ErbB interactions; mean of replicate hits
Residues, ends and D or L forms follow the SMILES beside them.
pKd reference
Please treat pKd as minus the base-10 logarithm of the molar concentration.

Study these solved cases before continuing.
[
  {
    "compound": "CSCC[C@H](NC(=O)[C@H](C)NC(=O)[C@H](C)NC(=O)[C@H](Cc1ccc(OP(=O)(O)O)cc1)NC(=O)[C@H](CC(=O)O)NC(=O)CNC(=O)CNC(=O)[C@@H]1CCCN1)C(=O)NCC(=O)N[C@@H](C)C(=O)N[C@@H](CS)C(=O)N1CCC[C@H]1C(=O)N[C@@H](CC(=O)O)C(=O)O [ErbB3 1276 13-mer] (HELM PEPTIDE1{P.G.G.D.[O=C([C@H](Cc1ccc(OP(=O)(O)O)cc1)N[*:1])[*:2]].A.A.M.G.A.C.P.D}$$$$V2.0)",
    "readout type": "pKd",
    "value reported": 5.43
  },
  {
    "compound": "CSCC[C@H](NC(=O)[C@@H]1CCCN1C(=O)[C@@H](NC(=O)[C@H](Cc1ccc(OP(=O)(O)O)cc1)NC(=O)[C@H](C)NC(=O)[C@@H]1CCCN1C(=O)[C@@H]1CCCN1C(=O)[C@@H]1CCCN1)[C@@H](C)O)C(=O)N[C@@H](CO)C(=O)NCC(=O)N[C@@H](CC(N)=O)C(=O)N[C@@H](CCC(N)=O)C(=O)N[C@@H](CC(=O)O)C(=O)O [ErbB4 1056 13-mer] (HELM PEPTIDE1{P.P.P.A.[O=C([C@H](Cc1ccc(OP(=O)(O)O)cc1)N[*:1])[*:2]].T.P.M.S.G.N.Q.D}$$$$V2.0)",
    "readout type": "pKd",
    "value reported": 6.64
  },
  {
    "compound": "CC(C)C[C@H](NC(=O)[C@H](Cc1ccc(O)cc1)NC(=O)[C@H](CC(C)C)NC(=O)[C@@H]1CCCN1C(=O)[C@H](CCC(=O)O)NC(=O)[C@H](CC(N)=O)NC(=O)[C@@H](NC(=O)[C@H](Cc1ccc(OP(=O)(O)O)cc1)NC(=O)[C@H](CCC(=O)O)NC(=O)[C@H](CC(=O)O)NC(=O)[C@H](CCC(=O)O)NC(=O)[C@H](C)N)C(C)C)C(=O)N[C@@H](CC(=O)O)C(=O)O [ErbB4 1202 13-mer] (HELM PEPTIDE1{A.E.D.E.[O=C([C@H](Cc1ccc(OP(=O)(O)O)cc1)N[*:1])[*:2]].V.N.E.P.L.Y.L.D}$$$$V2.0)",
    "readout type": "pKd",
    "value reported": 5.54
  }
]

Note: attention shifts to another entry.
Problem: Which pKd reading was recorded for the compound CSCC[C@H](NC(=O)[C@@H]1CCCN1C(=O)[C@H](CCSC)NC(=O)[C@H](Cc1ccc(OP(=O)(O)O)cc1)NC(=O)CNC(=O)[C@H](CO)NC(=O)[C@H](CO)NC(=O)[C@@H]1CCCN1)C(=O)N[C@@H](CC(N)=O)C(=O)N[C@@H](CCC(N)=O)C(=O)NCC(=O)N[C@@H](CC(N)=O)C(=O)N[C@@H](CC(=O)O)C(=O)O [ErbB3 1054 13-mer] (HELM PEPTIDE1{P.S.S.G.[O=C([C@H](Cc1ccc(OP(=O)(O)O)cc1)N[*:1])[*:2]].M.P.M.N.Q.G.N.D}$$$$V2.0) ?
Result: 6.59
